biological target: BCL-XLΔC (Homo sapiens); assay: High-throughput competitive FP binding screen, FITC-BAD BH3/BCL-XLΔC interaction; settings: FITC-BAD BH3/BCL-XLΔC interaction pair, competitive FP screen
Collected BCL-XL % Bound values appear next to each entry.
Field: numeric (%). Do not append units.

[[record]]
molecule = "C=C/C(=C\\C)N(CC)S(=O)(=O)c1ccc(Oc2ccc(-n3ccnc3)cc2)nc1"
data_value = 102.9

[[record]]
molecule = "O=c1c(O)cccc2cc(O)c(O)c(O)c12"
data_value = 33.74

[[record]]
molecule = "CCCN1C(=O)C(C#N)=C(C)/C(=C\\c2ccc(-c3ccc(Br)cc3)o2)C1=O"
data_value = 102.2

[[record]]
molecule = "Cc1occc1-c1nnc2n1N=C(c1ccc(-c3cc(Cl)ccc3Cl)o1)CS2"
data_value = 104

[[record]]
molecule = "CC1=C/C(=N\\Nc2ccccc2Cl)CC1"
data_value = 99.01


Could you now consider this next molecule?
What value of BCL-XL % Bound has been recorded for this entry: CC1CCc2c(sc3ncn4c(S)nnc4c23)C1 (stereo not drawn)
95.03

---

The entries below are paired with their reported BCL-XL % Bound.
molecular target: BCL-XLΔC (Homo sapiens, UniProt Q07817); experiment: High-throughput competitive FP binding screen, FITC-BAD BH3/BCL-XLΔC interaction; conditions: FITC-BAD BH3/BCL-XLΔC interaction pair, competitive FP screen
Sequence (Q07817 1-212 limits assumed, stated change not applied): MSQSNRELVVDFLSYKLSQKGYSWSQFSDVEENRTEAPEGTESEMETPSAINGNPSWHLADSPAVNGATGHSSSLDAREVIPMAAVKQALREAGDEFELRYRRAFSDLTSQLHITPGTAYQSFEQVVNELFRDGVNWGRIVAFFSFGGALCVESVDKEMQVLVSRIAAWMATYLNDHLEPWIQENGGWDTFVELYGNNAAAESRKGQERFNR
Give just the numeric value; % need not be written.

Item under review: CC1=C(C#N)C(=O)N=C(O)/C1=C\c1ccc(-c2ccc(S(N)(=O)=O)cc2)o1 [drawing 191] . Reported BCL-XL % Bound?
98.2

What does the record list as BCL-XL % Bound for c1cc(CNc2ccc(N3CCCC3)cc2)ccn1 ?
95.63

---

target: MCL-1ΔNΔC (Homo sapiens); assay: High-throughput competitive FP binding screen, FITC-MCL-1 SAHB/MCL-1ΔNΔC interaction; design: the C-terminal alpha-helix was deleted from each of these constructs; GST (N, cleaved yes); made in house; conditions: FITC-MCL-1 SAHB/MCL-1ΔNΔC interaction pair, competitive FP screen
Sequence (Q07820 172-320 limits assumed, stated change not applied): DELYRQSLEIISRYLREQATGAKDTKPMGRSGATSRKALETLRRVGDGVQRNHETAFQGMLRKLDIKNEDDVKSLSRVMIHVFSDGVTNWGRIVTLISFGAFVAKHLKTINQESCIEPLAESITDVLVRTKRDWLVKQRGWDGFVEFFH
# Lookup of reported MCL-1% Bound keyed by entry
Numeric only. Scale: %

[[record]]
compound = "Cc1cs/c(=N\\C2CCCCC2)n1/N=C/c1ccc(O)c(O)c1O"
data_value = "−16.27"

[[record]]
compound = "c1coc(C2Nc3cccc4cccc(c34)N2)c1"
data_value = 48.94


I'd like to know its MCL-1% Bound. The compound in question is CC1=C(C#N)C(=O)N(CC(C)O)C(=O)/C1=C/c1ccc(-c2ccc(Cl)cc2)o1 (centres unmarked)
15.04

Given O=C(NN=C1CCCC1)c1ccccc1NS(=O)(=O)c1cccs1 , state its recorded MCL-1% Bound.
29.27

Recorded MCL-1% Bound for COc1ccc(C(=O)COC(=O)c2c3c(nc4ccccc24)CCN(C)C3)cc1 , please?
−30.96

# MCL-1% Bound lookup, item CN1C(=O)C2(NN=C(c3ccccc3)S2)c2cc(Br)ccc21 (centres unmarked)
18.57

Which MCL-1% Bound is reported for this compound? CC1(C)c2ssc(=S)c2-c2ccccc2N1C(=O)CSC#N
47.02

# input compound: Cc1ccnc(NC(c2ccco2)c2c(C)[nH]c3ccccc23)c1 (centres unmarked) ; wanted: its MCL-1% Bound
49.8

Quick one: MCL-1% Bound for CN1c2ccccc2C(C)(C)C12C=Cc1cc(O)ccc1O2 (centres unmarked) ?
37.92

MCL-1% Bound for Cc1cccc(NC(=O)CSc2nncc(=O)[nH]2)c1 ?
27.28

# input compound: O=C(CSc1nc2c(sc(=S)n2Cc2ccco2)c(=O)n1-c1ccccc1)c1ccc(O)c(O)c1 ; wanted: its MCL-1% Bound
59.44
